Test system: HCC827 (EGFR DelE746_A750)
testProtocol: Inhibition test for growth of cancer cell expressing EGFR (SRB), HCC827
Assay type: cell-based
studyConditions: Homo sapiens, HCC827, 72 h, HCC827 cells, 72 hours, SRB; read-out: GI50 HCC827 EGFR DelE746_A750
outcomeMeasure: GI50

// below: answered molecules
• C=CC(=O)Nc1cccc(Oc2nc(Nc3ccc(CCN4CCN(CC)CC4)cc3)nc3ccsc23)c1 [Example 99] = 50 to 100 nM
• C=CC(=O)Nc1cccc(Oc2nc(Nc3ccc(/C=C/CN4CCCCC4)cc3)nc3ccsc23)c1 [Example 102] = < 50 nM
• C=CC(=O)Nc1cccc(Oc2nc(Nc3ccc(CN4CCC4)cc3)nc3ccsc23)c1 [Example 175] = < 50 nM

**Query** Tell us which GI50 value is on record for C=CC(=O)Nc1cccc(Oc2nc(Nc3ccc(N4CCC(N5CCCC5)CC4)cc3)nc3ccsc23)c1 [Example 47]
**Result** < 50 nM

**Query** Tell us which GI50 value is on record for C=CC(=O)Nc1cccc(Oc2nc(Nc3ccc(N4CC(C)OC(C)C4)c(F)c3)nc3ccsc23)c1 (centres unmarked) [Example 123]
**Result** 50 to 100 nM

**Query** Tell us which GI50 value is on record for C=CC(=O)Nc1cccc(Oc2nc(Nc3ccc(N4CCN(CC(F)F)CC4)cc3)nc3ccsc23)c1 [Example 15]
**Result** < 50 nM

**Query** Tell us which GI50 value is on record for C=CC(=O)Nc1cccc(Oc2nc(Nc3ccc(O)cc3)nc3ccsc23)c1 [Example 60]
**Result** 100 to 1000 nM

**Query** Tell us which GI50 value is on record for C=CC(=O)Nc1cccc(Oc2nc(Nc3ccc(NC4CCN(C(C)C)CC4)c(F)c3)nc3ccsc23)c1 [Example 130]
**Result** < 50 nM

====

Tested on: HCC827 (EGFR DelE746_A750)
testProtocol: Inhibition test for growth of cancer cell expressing EGFR (SRB), HCC827
Type: cell-based
studyConditions: Homo sapiens, HCC827, 72 h, HCC827 cells, 72 hours, SRB; read-out: GI50 HCC827 EGFR DelE746_A750
In this section we review reported GI50 values for a set of molecules.

// below: answered molecules
* C=CC(=O)Nc1cccc(Oc2nc(Nc3ccc(S(=O)(=O)NCCN(C)C)cc3)nc3ccsc23)c1 | < 50 nM
* C=CC(=O)Nc1cccc(Oc2nc(Nc3ccc(N4CCN(C)CC4)cc3)nc3ccoc23)c1 | < 50 nM
* C=CC(=O)Nc1cccc(Oc2nc(Nc3ccc(N4CCN(CCF)CC4)cc3)nc3ccsc23)c1 | < 50 nM
* C=CC(=O)Nc1cccc(Oc2nc(Nc3ccc(N4CCC(N5CCCC5)CC4)c(Cl)c3)nc3ccsc23)c1 | < 50 nM
* C=CC(=O)Nc1cccc(Oc2nc(Nc3ccc(C(=O)N4CCN(S(=O)(=O)CC)CC4)c(Cl)c3)nc3ccsc23)c1 | < 50 nM
* C=CC(=O)Nc1cccc(Oc2nc(Nc3ccc4c(c3)CCCC(=O)N4C)nc3ccsc23)c1 | 50 to 100 nM

**Query** Tell us which GI50 value is on record for C=CC(=O)Nc1cccc(Oc2nc(Nc3ccc(NC4CCN(C)CC4)c(F)c3)nc3ccoc23)c1
**Result** < 50 nM

**Query** Tell us which GI50 value is on record for C=CC(=O)Nc1cccc(Oc2nc(Nc3ccc(C4CCCN(C)C4)c(F)c3)nc3ccsc23)c1 (stereo not drawn)
**Result** < 50 nM

**Query** Tell us which GI50 value is on record for C=CC(=O)Nc1cccc(Oc2nc(Nc3ccc(N4CCC(N5CCCC5)CC4)c(F)c3)nc3ccsc23)c1
**Result** < 50 nM

**Query** Tell us which GI50 value is on record for C=CC(=O)Nc1cccc(Oc2nc(Nc3ccc(N4CCC(N(C)C)CC4)cc3)nc3ccsc23)c1
**Result** < 50 nM

**Query** Tell us which GI50 value is on record for C=CC(=O)Nc1cccc(Oc2nc(Nc3ccc(OCCN(CC)CC)c(F)c3)nc3ccsc23)c1
**Result** < 50 nM

====

Tested on: HCC827 (EGFR DelE746_A750)
testProtocol: Inhibition test for growth of cancer cell expressing EGFR (SRB), HCC827;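 note: cells in 96-well plates exposed to tenfold serial dilutions from 100 µM, fixed with trichloroacetic acid, SRB-stained, absorbance read at 540 nm, DMSO under 1%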
Assay type: cell-based
studyConditions: Homo sapiens, HCC827, 72 h, HCC827 cells, 72 hours, SRB; read-out: GI50 HCC827 EGFR DelE746_A750
In this section we review reported GI50 values for a set of compounds.

// below: answered compounds
- C=CC(=O)Nc1cccc(Oc2nc(Nc3ccc(C(=O)NCCN4CCCC4)cc3)nc3ccsc23)c1: < 50 nM
- C=CC(=O)Nc1cccc(Oc2nc(Nc3ccc(C(=O)NC)cc3)nc3ccsc23)c1: 50 to 100 nM
- C=CC(=O)Nc1cccc(Oc2nc(Nc3ccc(N4CCNCC4)c(Cl)c3)nc3ccsc23)c1: < 50 nM
- C=CC(=O)Nc1cccc(Oc2nc(Nc3ccc(N4CCC(n5ccnc5)CC4)cc3)nc3ccsc23)c1: < 50 nM
- C=CC(=O)Nc1cccc(Oc2nc(Nc3ccc(N4CCSCC4)cc3)nc3ccsc23)c1: 100 to 1000 nM
- C=CC(=O)Nc1cccc(Oc2nc(Nc3ccc(N4CCN(CC)CC4)cc3OC)nc3ccsc23)c1: < 50 nM

**Query** With HCC827 (EGFR DelE746_A750) as the test system, provide measured GI50 for this compound: C=CC(=O)Nc1cccc(Oc2nc(Nc3ccc(C(=O)N(C)C)cc3)nc3ccsc23)c1
**Result** 50 to 100 nM

**Query** With HCC827 (EGFR DelE746_A750) as the test system, provide measured GI50 for this compound: C=CC(=O)Nc1cccc(Oc2nc(Nc3ccc(S(C)(=O)=O)cc3)nc3ccsc23)c1
**Result** 50 to 100 nM

**Query** With HCC827 (EGFR DelE746_A750) as the test system, provide measured GI50 for this compound: C=CC(=O)Nc1cccc(Oc2nc(Nc3ccc(N4CCN(CCOC)CC4)cc3)nc3ccsc23)c1
**Result** < 50 nM

**Query** With HCC827 (EGFR DelE746_A750) as the test system, provide measured GI50 for this compound: C=CC(=O)Nc1cccc(Oc2nc(Nc3ccc(C4CCN(C(C)C)CC4)cc3)nc3ccsc23)c1
**Result** < 50 nM

**Query** With HCC827 (EGFR DelE746_A750) as the test system, provide measured GI50 for this compound: C=CC(=O)Nc1cccc(Oc2nc(Nc3ccc(C4(N)CC4)cc3)nc3ccsc23)c1
**Result** < 50 nM

**Query** With HCC827 (EGFR DelE746_A750) as the test system, provide measured GI50 for this compound: C=CC(=O)Nc1cccc(Oc2nc(Nc3ccc(N4CCS(=O)(=O)CC4)cc3)nc3ccsc23)c1
**Result** < 50 nM

**Query** With HCC827 (EGFR DelE746_A750) as the test system, provide measured GI50 for this compound: C=CC(=O)Nc1cccc(Oc2nc(Nc3ccc(CN4CCC(N(C)C)CC4)cc3)nc3ccsc23)c1
**Result** < 50 nM

====

targetOrTestSystem: JAK3 (Homo sapiens, UniProt P52333)
Sequence (P52333 1-1124): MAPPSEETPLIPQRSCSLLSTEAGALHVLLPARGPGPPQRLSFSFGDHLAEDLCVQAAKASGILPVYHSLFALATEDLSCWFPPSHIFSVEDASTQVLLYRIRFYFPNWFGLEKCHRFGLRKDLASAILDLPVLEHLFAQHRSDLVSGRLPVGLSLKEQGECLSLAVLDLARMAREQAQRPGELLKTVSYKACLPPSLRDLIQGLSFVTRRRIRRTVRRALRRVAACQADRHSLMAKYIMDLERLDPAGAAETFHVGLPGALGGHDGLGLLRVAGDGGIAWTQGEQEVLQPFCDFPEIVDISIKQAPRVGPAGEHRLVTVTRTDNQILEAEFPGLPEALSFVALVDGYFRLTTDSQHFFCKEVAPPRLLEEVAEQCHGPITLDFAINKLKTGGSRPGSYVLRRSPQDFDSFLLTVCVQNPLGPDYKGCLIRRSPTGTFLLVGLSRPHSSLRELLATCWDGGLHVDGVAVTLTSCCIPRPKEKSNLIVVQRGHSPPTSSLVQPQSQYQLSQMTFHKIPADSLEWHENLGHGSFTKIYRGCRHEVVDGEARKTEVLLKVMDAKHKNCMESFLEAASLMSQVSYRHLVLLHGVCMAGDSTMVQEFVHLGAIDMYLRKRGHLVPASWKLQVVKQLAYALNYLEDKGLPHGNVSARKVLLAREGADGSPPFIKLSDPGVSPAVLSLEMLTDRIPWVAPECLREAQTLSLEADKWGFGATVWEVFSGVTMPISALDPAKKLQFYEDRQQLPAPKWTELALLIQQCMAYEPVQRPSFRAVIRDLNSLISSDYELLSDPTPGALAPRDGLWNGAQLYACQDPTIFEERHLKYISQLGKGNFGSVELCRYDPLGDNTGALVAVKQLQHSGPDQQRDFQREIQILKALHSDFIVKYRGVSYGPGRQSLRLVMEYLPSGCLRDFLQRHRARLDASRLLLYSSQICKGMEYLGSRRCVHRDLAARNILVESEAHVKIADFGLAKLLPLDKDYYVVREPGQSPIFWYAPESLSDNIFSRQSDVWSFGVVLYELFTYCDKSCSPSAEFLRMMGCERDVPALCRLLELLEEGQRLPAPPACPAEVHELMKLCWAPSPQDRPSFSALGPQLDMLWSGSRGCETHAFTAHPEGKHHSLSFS
outcomeMeasure: IC50

• C=CC(=O)Nc1cccc(Oc2nc(Nc3ccc(N4CCC(N5CCCCC5)CC4)c(F)c3)nc3ccsc23)c1 [Example 125] = ≤ 0.05 µM

**Query** Tell us which IC50 value is on record for C=CC(=O)Nc1cccc(Oc2nc(Nc3ccc(S(=O)(=O)NC4CCN(C(C)C)CC4)cc3)nc3ccsc23)c1 [Example 74]
**Result** 0.05 to 0.1 µM

**Query** Tell us which IC50 value is on record for C=CC(=O)Nc1cccc(Oc2nc(Nc3ccc(C(=O)N4CCN(CC)CC4)c(Cl)c3)nc3ccsc23)c1 [Example 203]
**Result** 0.05 to 0.1 µM

**Query** Tell us which IC50 value is on record for C=CC(=O)Nc1cccc(Oc2nc(Nc3ccc(N4CCN(C)CC4)c(Cl)c3)nc3ccsc23)c1 [Example 7]
**Result** 0.05 to 0.1 µM

**Query** Tell us which IC50 value is on record for C=CC(=O)Nc1cccc(Oc2nc(Nc3ccc(CN4CCN(C)CC4)cc3)nc3ccsc23)c1 [Example 182]
**Result** 0.05 to 0.1 µM

**Query** Tell us which IC50 value is on record for C=CC(=O)Nc1cccc(Oc2nc(Nc3ccc(CN(CC)CC)cc3)nc3ccsc23)c1 [Example 174]
**Result** 0.05 to 0.1 µM

**Query** Tell us which IC50 value is on record for C=CC(=O)Nc1cccc(Oc2nc(Nc3ccc(N4CCC(CN(C)C)CC4)cc3)nc3ccsc23)c1 [Example 41]
**Result** 0.05 to 0.1 µM

Recorded values, source patent USRE46511E1.
